Tested on: Babesia gibsoni
Test Name: Antibabesial activity against Babesia gibsoni in dog erythrocytes after 72 hrs
Type: functional, organism-based
Field 'label' (enum: condition met / condition not met). Set to condition met when IC50 is strictly under 40 µg/mL; else condition not met.

Solved cases below.
- O=C(O[C@H]1O[C@H](COC(=O)c2cc(O)c(O)c3oc(=O)c4cc(O)c(O)c(O)c4c23)[C@@H](O)[C@H](O)[C@H]1O)c1cc(O)c(O)c(O)c1: condition met
- O=C(O)c1cc(O)c(O)c(O)c1 [GALLIC ACID]: condition met
- CC[C@H](CC[C@@H](C)[C@H]1CC[C@H]2[C@@H]3CC=C4C[C@@H](O)CC[C@]4(C)[C@H]3CC[C@]12C)C(C)C [BETA-SITOSTEROL]: condition not met

[in] Here's an entry: CC(=O)NCC(=O)O.N=C(N)c1ccc(/N=N/Nc2ccc(C(=N)N)cc2)cc1 [DIMINAZEN ACETURATE] . Is its IC50 below 40 µg/mL?
[out] condition met

[in] Here's an entry: `O=c1c(O[C@@H]2O[C@H](CO)[C@@H](O)[C@H](O)[C@H]2O[C@@H]2OC[C@@H](O)[C@H](O)[C@H]2O)c(-c2ccc(O)c(O)c2)oc2cc(O)cc(O)c12` . Is its IC50 below 40 µg/mL?
[out] condition met

[in] Here's an entry: `O=C(O[C@@H]1O[C@H](CO)[C@@H](O)[C@H](O)[C@H]1O)c1cc(O)c(O)c(O)c1` . Is its IC50 below 40 µg/mL?
[out] condition met

----------
Consider the following compounds and their measured IC50 readings.
Test system: Plasmodium falciparum
Test Name: Antiplasmodial activity against chloroquine-susceptible Plasmodium falciparum FCR3 in human erythrocytes after 24 hrs
Assay type: functional, organism-based
Condition Details: FCR3, 24 h
Respond with the bare value in µg/mL.

Completed entries (count: 4):
• O=C(O[C@@H]1O[C@H](CO)[C@@H](O)[C@H](O)[C@H]1O)c1cc(O)c(O)c(O)c1 = 4.6
• O=C(O)c1cc(O)c(O)c(O)c1 [GALLIC ACID] = 14.8
• O=C(O[C@H]1O[C@H](COC(=O)c2cc(O)c(O)c3oc(=O)c4cc(O)c(O)c(O)c4c23)[C@@H](O)[C@H](O)[C@H]1O)c1cc(O)c(O)c(O)c1 = 1.4
• CC[C@H](CC[C@@H](C)[C@H]1CC[C@H]2[C@@H]3CC=C4C[C@@H](O)CC[C@]4(C)[C@H]3CC[C@]12C)C(C)C [BETA-SITOSTEROL] = 32

Moving on to another compound below.
[in] Report IC50 for `O=c1c(O[C@@H]2O[C@H](CO)[C@@H](O)[C@H](O)[C@H]2O[C@@H]2OC[C@@H](O)[C@H](O)[C@H]2O)c(-c2ccc(O)c(O)c2)oc2cc(O)cc(O)c12`
[out] 11

----------
Test Name: Cytotoxicity against human RBC
Assay type: cell-based
Condition Details: erythrocyte
Attribute Measured: Activity

Completed entries (count: 4):
• O=C(O[C@@H]1O[C@H](CO)[C@@H](O)[C@H](O)[C@H]1O)c1cc(O)c(O)c(O)c1 = Non-toxic
• CC[C@H](CC[C@@H](C)[C@H]1CC[C@H]2[C@@H]3CC=C4C[C@@H](O)CC[C@]4(C)[C@H]3CC[C@]12C)C(C)C = Non-toxic
• O=c1c(O[C@@H]2O[C@H](CO)[C@@H](O)[C@H](O)[C@H]2O[C@@H]2OC[C@@H](O)[C@H](O)[C@H]2O)c(-c2ccc(O)c(O)c2)oc2cc(O)cc(O)c12 = Non-toxic
• O=C(O[C@H]1O[C@H](COC(=O)c2cc(O)c(O)c3oc(=O)c4cc(O)c(O)c(O)c4c23)[C@@H](O)[C@H](O)[C@H]1O)c1cc(O)c(O)c(O)c1 = Non-toxic

[in] Report Activity for `O=C(O)c1cc(O)c(O)c(O)c1`
[out] Non-toxic
